Attribution: patent US20200297818A1

Target: human glucagon-like peptide 1 receptor (GLP-1 R) (human, UniProt P43220 24-463)
Test: cell-based or functional assay
*1 amine or outer side, *2 acyl side, *3 side chain or, on linkers, in order; H or OH if unused. Where no end group is shown, it is not given here. Side-chain parts run from the residue outwards. [ ]: non-standard residue; d: D form. The star is where a group is joined. C20 diacid = O=C(O)CCCCCCCCCCCCCCCCCCC(=O)*; C18 diacid = O=C(O)CCCCCCCCCCCCCCCCC(=O)*; γGlu = O=C(O)[C@H](CCC(=O)[*:2])N[*:1]; AEEA = NCCOCCOCC(=O)O; Aib = CC(C)(N)C(=O)O

{"BINDER": "H-H[Aib]EGSFTSEK([AEEA-Lys-Glu-Lys-γGlu-C20 diacid])ATILDEQAARDFIAWLIEHKITD-OH [Compound 53]", "EC50 GLP-1 (nM); cAMP response": "0.076 nM"}
{"BINDER": "H-H[Aib]EGTFSSELATILDEQAARDFIAWLIAHKITD[dK][dK][dK][dK][dK][dK]([γGlu-C18 diacid])-NH2 [Compound 38]", "EC50 GLP-1 (nM); cAMP response": "0.25 nM"}
{"BINDER": "H[Aib]EGTFTSELATILDK([γGlu-C18 diacid])KAARDFIAWLIEHKITD-OH [Compound 6]", "EC50 GLP-1 (nM); cAMP response": "0.058 nM"}
{"BINDER": "H-H[Aib]EGTFTSEK([AEEA-Lys-Glu-Lys-γGlu-C20 diacid])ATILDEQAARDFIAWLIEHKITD-OH [Compound 54]", "EC50 GLP-1 (nM); cAMP response": "0.034 nM"}
{"BINDER": "H-H[Aib]EGSFTSELATILDAK([AEEA-Lys-Glu-Lys-γGlu-C20 diacid])AARDFIAWLIEHKITD-OH [Compound 62]", "EC50 GLP-1 (nM); cAMP response": "0.27 nM"}
